# SYSTEM_TESTED: Maternal embryonic leucine zipper kinase (Homo sapiens)
# RUN_CONDITIONS: at 10 µM
MEASUREMENT_KIND: residual activity (%)
Please reply with the bare figure in % and do not write the unit itself.

// worked examples, residual activity included
Prompt: Fill blank: measured residual activity of the compound `CC(=O)O/N=C1\C(=C2\C(=O)Nc3cc(Br)ccc32)Nc2ccccc21` is ____.
Response: 52

Prompt: Reported residual activity for `Cc1ccc(S(=O)(=O)/C=C/C#N)cc1` : what is it?
Response: 100

Prompt: Quick one: residual activity for `Cc1nc(-c2ccccc2)c(-c2ccncc2)o1` ?
Response: 89

Prompt: Report residual activity for `COc1ccc(C(=O)Nc2sc3c(c2C(N)=O)CCCC3)cc1OC` please.
Response: 78

Prompt: // residual activity lookup, key: `O=c1cc(-c2cccc3c2Sc2ccccc2S3)oc(N2CCOCC2)c1`
Response: 90

Prompt: Which measured residual activity value corresponds to O=C1Nc2ccccc2/C1=C1/Nc2ccccc2/C1=N\OCCC(O)CO (configuration not stated) ?
Response: 5

Please find the next compound below.
Prompt: So what's the measured residual activity for this one? `O=c1c2ccccc2[nH]c(=S)n1CCN1CCC(=C(c2ccc(F)cc2)c2ccc(F)cc2)CC1`
Response: 86

----------
List of residual activity values.
# SYSTEM_TESTED: Insulin receptor (Homo sapiens)
# RUN_CONDITIONS: at 1 µM
Reply with just the number (in %).

Below are worked cases with known answers.
Prompt: I have this compound here, `COc1ccc(S(=O)(=O)N(CCO)c2ccccc2CN(C)C/C=C/c2ccc(Cl)cc2)cc1` , and I need its recorded residual activity.
Response: 91

Prompt: What value of measured residual activity is listed for `CC(C)n1cnc2/c(=N/c3cccc(Cl)c3)nc(NCCO)[nH]c21` ?
Response: 83

Prompt: Would you mind telling me what residual activity value was observed for `COc1cc2ncnc(Nc3ccc(Oc4ccccc4)cc3)c2cc1OC` ?
Response: 110

Prompt: Given the compound `Cc1nc2cc3nc(-c4cccs4)cnc3cc2n1C` , what is its reported residual activity?
Response: 117

Prompt: Need residual activity of `CO[C@H]1C[C@@H]2CC[C@@H](C)[C@@](O)(O2)C(=O)C(=O)N2CCCC[C@H]2C(=O)O[C@H]([C@H](C)C[C@@H]2CC[C@@H](O)[C@H](OC)C2)CC(=O)[C@H](C)/C=C(\C)[C@@H](O)[C@@H](OC)C(=O)[C@H](C)C[C@H](C)/C=C/C=C/C=C/1C` , thanks.
Response: 107

Others:
Prompt: Using the record for `CO[C@H]1[C@@H](OC)C[C@H](C)[C@@H](OC)C2=CC(=O)C=C(NC(=O)/C(C)=C/C=C/[C@H](OC)[C@@H](OC(N)=O)/C(C)=C/[C@@H]1C)C2=O` , report its residual activity.
Response: 109

Prompt: // residual activity lookup, key: `CCOc1cc2ncnc(Nc3cccc(Br)c3)c2cc1OCC`
Response: 104

Prompt: Value lookup for residual activity; key = `Ic1cccc(CSc2nnc(-c3ccncc3)o2)c1`
Response: 93

Prompt: What value of residual activity has been reported for the following compound? `NC(=O)c1ccc2[nH]c(-c3ccc(Oc4ccc(Cl)cc4)cc3)nc2c1`
Response: 102

Prompt: Query: residual activity; subject: `COc1cccc(-c2cc(=O)c3ccccc3o2)c1N`
Response: 109

Prompt: Data request, read-out residual activity, for `O=C(O)c1ccc2c3c1cccc3c(=O)n1c3ccccc3nc21`
Response: 117

Prompt: If you can, please state the reported residual activity value of `COc1ccc(C(=O)Nc2sc3c(c2C(N)=O)CCCC3)cc1OC` .
Response: 105

Prompt: Suppose we examine the compound `O=C1NC(=O)/C(=C\c2ccc3nccnc3c2)S1` ; what residual activity value has been reported?
Response: 107

Prompt: Query (compound): `Cc1ccc(NC2=CC(=O)c3sc(C)nc3C2=O)cc1` ; field requested: residual activity
Response: 95

Prompt: Give the measured residual activity of `O=C(Nc1cccc(Nc2nccc(Nc3cccc(C(F)(F)F)c3)n2)c1)C1CC1` .
Response: 22
